- test.system: T1, human CGRP receptor extracellular domain (ECD) (human, UniProt Q16602 23-138; O60894 27-117)
- T1 construct: also called CGRP receptor ECD; human CGRP receptor ECD
- T1 sequence (Q16602 23-138 limits assumed, chain 1 of 2): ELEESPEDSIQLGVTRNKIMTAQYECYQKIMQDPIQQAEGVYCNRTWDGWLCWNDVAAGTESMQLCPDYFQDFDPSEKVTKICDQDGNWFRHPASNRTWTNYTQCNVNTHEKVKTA
- T1 sequence (O60894 27-117 limits assumed, chain 2 of 2): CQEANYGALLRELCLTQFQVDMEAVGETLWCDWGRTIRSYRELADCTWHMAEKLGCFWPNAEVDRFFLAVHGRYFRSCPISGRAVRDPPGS
- assay: yeast-displayed Fab, FACS, 10 nM human CGRP receptor ECD
readout.type: Normalized Binding Signal/Display Signal (B/D) (ratio)
Report only the number, with the unit ratio understood.

Completed entries (count: 2):
binder	endpoint.value
anti-CGRP receptor variant 09, yeast-displayed Fab (Fab, V domains shown, also called Variant Ab ID 09) VH: QVQLVESGGGVVQPGRSLRLSCAASGFTFSSFGMHWVRQAPGKGLEWVAVISFAGEIDYYVDSVKGRFTISRDNSKNTLFLQMNSLRAEDTAVYYCARDRLNYYESSGYYHYKYYGMAVWGQGTTVTVSS VL: QSVLTQPPSVSAAPGQKVTISCSGSSSNIGNNYVSWYQQLPGTAPKLLIYDNNKRPSGIPDRFSGSKSGTSATLGITGLQTGDEADYYCGTWDSRLSAVVFGGGTKLTVLG	1.62
anti-CGRP receptor variant 13, yeast-displayed Fab (Fab, V domains shown, also called Variant Ab ID 13) VH: QVQLVESGGGVVQPGRSLRLSCAASGFTFSSFGMHWVRQAPGKGLEWVAVISFDGSIKYSVDSVKGRFTISRDNSKNTLFLQMNSLRAEDTAVYYCARDRLNYYESSGYYHYKYYGMAVWGQGTTVTVSS VL: QSVLTQPPSVSAAPGQKVTISCSGSRSNIGRRTVSWYQQLPGTAPKLLIYDNNKRPSGIPDRFSGSKSGTSATLGITGLQTGDEADYYCGTWDSRLSAVVFGGGTKLTVLG	1.51

Query: Read off the recorded Normalized Binding Signal/Display Signal (B/D) for anti-CGRP receptor variant 07, yeast-displayed Fab (Fab, V domains shown, also called Variant Ab ID 07) VH: QVQLVESGGGVVQPGRSLRLSCAASGFYFMTYGMHWVRQAPGKGLEWVAVISFDGSIKYSVDSVKGRFTISRDNSKNTLFLQMNSLRAEDTAVYYCARDRLNYYESSGYYHYKYYGMAVWGQGTTVTVSS VL: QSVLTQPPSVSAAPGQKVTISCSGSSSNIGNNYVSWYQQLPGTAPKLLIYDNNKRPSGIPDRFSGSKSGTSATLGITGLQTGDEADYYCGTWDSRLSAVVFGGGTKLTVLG
Response: 0.81
